src = patent US20110053897A1

TARGET OR SYSTEM: Syk kinase (Homo sapiens, UniProt P43405)
Construct: purchased
PROTOCOL NOTES: Syk kinase inhibition, Caliper LabChip off-chip mobility-shift kinase assay
Assay type: biochemical
RECORDED CONDITIONS: Caliper LabChip assay; read-out: Syk Enzyme IC50
READOUT NAME: IC50 (nM)

- COMPOUND: "CC(C)(C)Nc1nc(Nc2cc(C(O)C(F)(F)F)ccn2)cc2ccn(CCO)c(=O)c12 (centres unmarked) [Compound No. 602]"
  UNIT TEXT: "nM"
  VALUE OBSERVED: 65
- COMPOUND: "NC(=O)Cn1ccc2cc(-c3cnc(N)nc3)nc(NC3CCCC3)c2c1=O [compound 757]"
  UNIT TEXT: "nM"
  VALUE OBSERVED: 59
- COMPOUND: "CC(C)(C)Nc1nc(Nc2cc(C3(C(N)=O)CC3)ccn2)cc2ccn(CCO)c(=O)c12 [compound 859]"
  UNIT TEXT: "nM"
  VALUE OBSERVED: 170
- COMPOUND: "CC(C)(C)Nc1nc(Nc2ccc(F)cn2)cc2ccn(CCO)c(=O)c12 [compound 696]"
  UNIT TEXT: "nM"
  VALUE OBSERVED: 328
- COMPOUND: "Nc1ncc(-c2cc3ccn(CCO)c(=O)c3c(N[C@H]3CC[C@@H](CO)C3)n2)cn1 [compound 912]"
  UNIT TEXT: "nM"
  VALUE OBSERVED: 2
- COMPOUND: "O=c1c2c(N[C@H]3CC[C@@H](O)CC3)nc(Nc3cnccn3)cc2ccn1C1COC1 [compound 1009]"
  UNIT TEXT: "nM"
  VALUE OBSERVED: 19
- COMPOUND: "CO/N=C(\\C)c1ccnc(Nc2cc3ccn(CCO)c(=O)c3c(NC(C)(C)C)n2)c1 [compound 695]"
  UNIT TEXT: "nM"
  VALUE OBSERVED: 431
- COMPOUND: "CC(C)Nc1nc(Nc2cc(-c3cccnc3)ccn2)cc2ccn(C)c(=O)c12 [compound 1046]"
  UNIT TEXT: "nM"
  VALUE OBSERVED: 113

(a) CCn1ccc2cc(Nc3cnccn3)nc(NC3CCC(=O)CC3)c2c1=O [compound 969]
(b) CC(C)(C)Nc1nc(Nc2cc(C(C)(C)O)ncn2)cc2ccn(CC(O)CO)c(=O)c12 (centres unmarked) [compound 730]
Hello, I am sorting some records. Could you say if a or b has the smaller IC50 value? Provide the label of your selected option as the answer.
b

###

TARGET OR SYSTEM: Syk kinase (Homo sapiens, UniProt P43405)
Construct: purchased
PROTOCOL NOTES: Syk kinase inhibition, Caliper LabChip off-chip mobility-shift kinase assay
Format: biochemical
RECORDED CONDITIONS: read-out: Syk Enzyme IC50
pIC50: −log10 of the molar value.
READOUT NAME: pIC50

- COMPOUND: "CCn1ccc2cc(Nc3cc(C)ccn3)nc(NC[C@H]3CC[C@@](C)(O)C3)c2c1=O"
  READOUT NAME: "pIC50"
  VALUE OBSERVED: 6.75

(P) Cc1ccnc(Nc2cc3c(F)cn(C)c(=O)c3c(NC(C)C)n2)c1
(Q) Cc1ccc(Nc2cc3cc[nH]c(=O)c3c(Nc3ccc(C4CCN(CC(N)=O)CC4)c(C)c3)n2)nc1
(R) COCC(C)Nc1nc(-c2cnc(N)nc2)cc2cc[nH]c(=O)c12 (centres unmarked)
(S) Cn1ccc2cc(Nc3cnccn3)nc(N[C@H]3CC[C@H](O)CC3)c2c1=O
Which order do these items take when sorted by rising pIC50? List them. Rank them, then answer with their labels in that order.
P, Q, R, S

(P) CCNC(=O)c1ccc(Nc2nc(Nc3cc(Cl)ccn3)cc3ccn(C)c(=O)c23)cc1
(Q) CCNc1nc(Nc2cc(C)ccn2)cc2cc[nH]c(=O)c12
So which one has the bigger pIC50 here, P or Q ? Provide the label of your selected option as the answer.
P

(A) CCCNC(=O)c1ccc(Nc2nc(Nc3cnccn3)cc3ccn(C)c(=O)c23)cc1
(B) Cc1ncc(-c2cc3cc[nH]c(=O)c3c(Nc3ccc(C4CCC(N(C)C)CC4)cc3)n2)cn1 (centres unmarked)
Hello, I am sorting some records. Could you say if A or B has the smaller pIC50 value? Provide the label of your selected option as the answer.
A
(A: 6.49, B: 7.17)

(1) COc1cncc(-c2cc3cc[nH]c(=O)c3c(Nc3ccc(C4=CCSCC4)c(C)c3)n2)n1
(2) CCN1CCN(CCc2ccc(Nc3nc(Nc4ccc(F)cn4)cc4cc[nH]c(=O)c34)cc2)CC1
Hello, I am sorting some records. Could you say if 1 or 2 has the smaller pIC50 value? Provide the label of your selected option as the answer.
1
(1: 5.47, 2: 6.79)
